self-cleavage kobs at 40 uM GlcN6P values, listed per item
B1: glmS ribozyme (parent)
chain: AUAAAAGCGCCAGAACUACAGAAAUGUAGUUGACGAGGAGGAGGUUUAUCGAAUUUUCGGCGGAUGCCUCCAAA

Variants of: B1
Assay: self-cleavage kobs at 40 uM GlcN6P; higher = faster cleavage; RNA array
Settings: with glucosamine-6-phosphate
Fewer inactive variants are shown than the library holds.

I am curious: what self-cleavage kobs at 40 uM GlcN6P value has been reported for AUAAAAGCUCCAGAAGUACAGAAAUGUAGUUGACGAGGAGGAGGUUUAUCGAAUUUUCGGCGGAUGCCUCUAAA [G9U C16G C71U] ?
< 1e-05 s⁻¹

Reported self-cleavage kobs at 40 uM GlcN6P, variant AUAAAAGCGCCAGAACUACAGAAAUGUAGUAGACGAGGAGGAGGUUUAUCGAAUUGUCGGCGGAUGCCUCCAAA [U31A U56G] : ____
0.000249 s⁻¹

What value of measured self-cleavage kobs at 40 uM GlcN6P is listed for AUAAAAGCGCCAGAACUACAGAAAUGUAGUUGACGUGGAGGAGGUUUAUCGGAUUUUCGGCGGAUGCCUCCAAA [A36U A52G] ?
< 1e-05 s⁻¹

// lookup self-cleavage kobs at 40 uM GlcN6P for AUAAAAACGCCAGAACUACAGAAAUGUAGUUGAGGAGGAGGAGGUUUAUCGAAUUCUCGGCGGAUGCCUCCAAA [G7A C34G U56C]
< 1e-05 s⁻¹

So what does the record say about self-cleavage kobs at 40 uM GlcN6P for AUAAAACCGCCAGAACUACAGAAAUGUAGUUGACGAGGAGGAGGUUUAUCGAAUUUUCGGCGGGUGCCUCCAAA [G7C A64G] ?
< 1e-05 s⁻¹

Query (variant): AUAAAAGCGCCACAACUACAGAAAUGUAGUUGACGAGGAGGAGGUUUAUCGAAUUUUCGACGGAGCCCUCUAAA [G13C G60A U65G G66C C71U] ; field requested: self-cleavage kobs at 40 uM GlcN6P
< 1e-05 s⁻¹

GET /values?readout=self-cleavage kobs at 40 uM GlcN6P&item= AUAAAAGCGCCAGAACUACAGAAAUGUAGUUGGCGAGGAGGAGGUUUAUCGAAUUUUCGGGGGAUGCCUCCAAA [A33G C61G]
< 1e-05 s⁻¹

Any idea what self-cleavage kobs at 40 uM GlcN6P was measured for AUAAAAGCGCCAGAACUACAGAAAUGUAGUUGACGAGGAGGAGGUUUAUCGAAUUUUCGGCGUAUGUCUCCAAA [G63U C67U] ?
< 1e-05 s⁻¹

For the variant shown here, AUAAAGGCGCCAGAACUACAGAAAUGUAGUCGACGAGGAGGAGGUUUAUCGAAUUUUCGGCGGAUGCAUCCAAA [A6G U31C C68A] , give the reported self-cleavage kobs at 40 uM GlcN6P.
< 1e-05 s⁻¹

Consider the variant shown here: AUAAAAGCGGCAGAACUACAGAAAUGUAGUUGACGCGGAGGACGUUUAUCGAAUUUUCGGCGGAUGCCUCCAAA [C10G A36C G43C] What is its recorded self-cleavage kobs at 40 uM GlcN6P?
< 1e-05 s⁻¹

Look up self-cleavage kobs at 40 uM GlcN6P: AUAAAAGCGCCAGAACUACAGAAAUGUAGUUGACGAGGAGGAGGCUUAUCGAAUUUUCGGCGGAUGACUGCAAA [U45C C67A C70G]
< 1e-05 s⁻¹

Would you mind telling me what self-cleavage kobs at 40 uM GlcN6P value was observed for AUAAAAGCGCCAGAACUACAGAAAUGUAGUUGACGAUGAAUAGGUUUAUCGGAUUUUCGGCGGAUGCCUCCAAA [G37U G40A G41U A52G] ?
< 1e-05 s⁻¹

Query: self-cleavage kobs at 40 uM GlcN6P; subject: AUAAAAGCGCCAGAACUACAGAAAUGUAGUUGACGAGGAGGAGGUUUAUGAAAUUUUCAGCGGAUGCCUCCAAA [C50G G51A G59A]
< 1e-05 s⁻¹

Any idea what its self-cleavage kobs at 40 uM GlcN6P is? The variant is AUAAAAGCGCCAGAAUUACAGAAAUGUAGAGGACGAGGAGGAGGUUUAUCGAUUUUUCUGCGGAUGCCUCCAAA [C16U U30A U31G A53U G59U]
< 1e-05 s⁻¹

What value of measured self-cleavage kobs at 40 uM GlcN6P is listed for AUAAAAGCGCCAGAACUACAGAAAUGUAGUCGACGAGGAGGAGGUUAAUCGAAUUUUCGGCGGAUGCCUCCAAA [U31C U47A] ?
8.24e-05 s⁻¹

Param item = AUAAAAGCGCCAGAACUACAGAAAUGUAGUUGACGAGGAGGAGAUUUAUCAAAUUUUCGGCGGAUGUCUCCAAA [G44A G51A C67U] ; retrieve measured self-cleavage kobs at 40 uM GlcN6P.
< 1e-05 s⁻¹

Item AUAAAAGCGCCAGAACUACAGAAAUGUAGUUGACGAGGAGGAGGUUUAUCGAAUUUUGGCCGGAUGCCUCCAAA [C58G G60C] has what recorded self-cleavage kobs at 40 uM GlcN6P?
< 1e-05 s⁻¹

Form field: reported self-cleavage kobs at 40 uM GlcN6P of AUAAAAUCGCCAGAACUACAGAAAUGUAGUUGACGAGGAGGGGGUUUAGCGAAUUUUCGGCGGAUGCCUGCAAA [G7U A42G U49G C70G]
< 1e-05 s⁻¹

Record request: self-cleavage kobs at 40 uM GlcN6P value, item AUAAAAGCGCCAGAUCUACAGAAAUGUAGUUGACGAGGAGGAGGUUUAUCGAAUUAUCGGCGGAUGCCUCCAAA [A15U U56A]
0.000156 s⁻¹

Find the recorded self-cleavage kobs at 40 uM GlcN6P belonging to AUAAAAGCGCAAGAACUACAGAAAUGUAGUUCACGAGGAGGAGGUUUAUCGAAUUUUCGGCGGAUGCCUCCAAA [C11A G32C] and report it.
< 1e-05 s⁻¹

self-cleavage kobs at 40 uM GlcN6P for AUAAAAGCGCCAGAACUACAGAAAUGUAGUUGACGAGGAGGAGGUUUAUCGAAUUUUCGGCGGAUGACUUCAAA [C67A C70U] ?
9.1e-05 s⁻¹
